- System: A549
- PROTOCOL: NCI tumour cell line growth inhibition, 48 h
Calls of active or inactive are those of the source. Cut-off read from the data, not from the text of the source: active = GI50 up to about 1.1 µM and inactive = higher.
REPORTED_ENDPOINT: GI50

Recorded results for 3 molecules are shown here.
>>> measured("CC(=O)OCC1OC(Nc2ncc(-c3ccc(C)cc3)s2)C(OC(C)=O)C(OC(C)=O)C1OC(C)=O (centres undefined)")
"44.5 µM (inactive)"
>>> measured("N#CC12COC3(CCCCC3C1(C#N)C#N)OC2=N (centres undefined)")
"24.7 µM (inactive)"
>>> measured("O=C1C2C3C=C4c5ccccc5N(c5ccccc5)C4(C2C(=O)N1Cc1ccccc1)C1C(=O)N(Cc2ccccc2)C(=O)C31 (centres undefined)")
"> 100 µM (inactive)"

Please give the documented GI50 of FC(F)=C(c1ccc(-c2ccc(Cl)cc2)cc1)C(F)(F)F 17.9 µM (inactive)

# return recorded GI50 for entry CCOC(=N)CC(=O)c1ccccc1 > 100 µM (inactive)
